These measurements were taken from patent US20160060347A1.

- Measurement Target: T1, N-terminal peptide aa1-48, BSA-coupled (human; bovine, coupled to carrier protein BSA; C-terminal cysteine introduced to enable coupling)
- T1 construct: also called CXCR2 aa1-48 BSA
- T1 sequence (peptide, as listed by the source limits assumed, chain 1 of 2): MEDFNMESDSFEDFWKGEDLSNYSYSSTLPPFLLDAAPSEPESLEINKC
- T1 sequence (P02769 25-607 limits assumed, chain 2 of 2): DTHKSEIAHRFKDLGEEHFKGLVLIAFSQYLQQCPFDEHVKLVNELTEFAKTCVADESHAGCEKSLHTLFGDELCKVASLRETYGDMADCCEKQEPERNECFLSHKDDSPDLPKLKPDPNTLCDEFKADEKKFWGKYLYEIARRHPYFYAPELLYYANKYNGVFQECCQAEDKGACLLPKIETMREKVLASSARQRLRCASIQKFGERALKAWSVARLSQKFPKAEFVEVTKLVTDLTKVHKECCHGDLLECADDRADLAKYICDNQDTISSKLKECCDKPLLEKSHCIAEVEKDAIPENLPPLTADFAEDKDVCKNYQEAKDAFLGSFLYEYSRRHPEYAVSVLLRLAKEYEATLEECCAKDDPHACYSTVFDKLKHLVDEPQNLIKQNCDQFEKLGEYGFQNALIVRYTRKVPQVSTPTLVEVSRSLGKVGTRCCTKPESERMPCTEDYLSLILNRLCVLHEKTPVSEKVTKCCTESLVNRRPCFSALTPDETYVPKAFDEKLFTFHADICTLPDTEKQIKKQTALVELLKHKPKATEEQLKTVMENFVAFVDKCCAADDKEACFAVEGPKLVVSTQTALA
- Assay Info: ELISA, coated peptide-BSA, Fab
Value Type: binding result

INSERT INTO measurements (binder, measured_result) VALUES
  ('CX2-Mab #15 (Fab, V domains shown) VH: EVQLLESGGGLVQPGGSLRLSCAASGFTFSRYWMSWVRQAPGKGLEWVSVISYSGSETYYADSVKGRFTISRDNSKNTLYLQMNSLRAEDTAVYYCARGRAYGYFDPWGQGTLVTVSS VL: DIVLTQPPSVSGAPGQRVTISCSGSSSNIGKKTVSWYQQLPGTAPKLLIYRNNQRPSGVPDRFSGSKSGTSASLAITGLQAEDEADYYCGSTTSSHLYVFGGGTKLTVLG', 'binds'),
  ('CX2-Mab #19 (Fab, V domains shown) VH: EVQLVQSGAEVKKPGESLKISCKGSGYSFTSYWISWVRQMPGKGLEWMGIIDPANSYTRYSPSFQGQVTISADKSISTAYLQWSSLKASDTAMYYCARVERRPRYYGSNYYGMDVWGQGTLVTVSS VL: DIVLTQPPSVSGAPGQRVTISCSGSSSNIGSNYVNWYQQLPGTAPKLLIYGNSNRPSGVPDRFSGSKSGTSASLAITGLQAEDEADYYCSVRDSEGRYVVFGGGTKLTVLG', 'binds'),
  ('CX2-Mab #16 (Fab, V domains shown) VH: EVQLLESGGGLVQPGGSLRLSCAASGFTFSRYWMSWVRQAPGKGLEWVSVISYSGSETYYADSVKGRFTISRDNSKNTLYLQMNSLRAEDTAVYYCARGRAYGYFDPWGQGTLVTVSS VL: DIVLTQPPSVSGAPGQRVTISCSGSSSNIGKKTVSWYQQLPGTAPKLLIYRNNQRPSGVPDRFSGSKSGTSASLAITGLQAEDEADYYCGSTGYRGLYVFGGGTKLTVLG', 'binds');
